These entries and their values trace back to patent US20210388087A1.

# Tgt: Human CD137 ECD (human)
# Sequence (chain, as listed by the source limits assumed): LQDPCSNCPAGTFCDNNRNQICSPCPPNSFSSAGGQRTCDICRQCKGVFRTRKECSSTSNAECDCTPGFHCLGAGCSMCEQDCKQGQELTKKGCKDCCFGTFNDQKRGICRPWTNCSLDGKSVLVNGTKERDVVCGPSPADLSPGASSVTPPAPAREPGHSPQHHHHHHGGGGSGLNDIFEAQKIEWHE
# Assay Notes: single mutant vs template dBBDu183H
Quick reference: fold change of affinity of the listed items.
State the answer as a number, implicitly in fold.

Task: Request the reported fold change of affinity associated with H183/L072 VH K52T (antibody, name in Kabat numbering, V domains shown) VH: QVQLVESGGGLVQPGRSLRLSCAASGFTFSNAWMHWVRQAPGKGLEWVAQITDKGNAYAAYYAPSVKGRFTISRDDSKNSIYLQMNSLKTEDTAVYYCHYVHYASASTVLPAFGVDAWGQGTTVTVSS VL: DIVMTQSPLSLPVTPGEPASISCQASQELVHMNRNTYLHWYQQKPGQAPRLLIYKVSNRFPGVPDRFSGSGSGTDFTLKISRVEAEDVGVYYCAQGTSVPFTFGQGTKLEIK
Result: 0

Field: next binder
Task: Give its fold change of affinity value. Item: H183/L072 VH W33I (antibody, name in Kabat numbering, V domains shown) VH: QVQLVESGGGLVQPGRSLRLSCAASGFTFSNAIMHWVRQAPGKGLEWVAQIKDKGNAYAAYYAPSVKGRFTISRDDSKNSIYLQMNSLKTEDTAVYYCHYVHYASASTVLPAFGVDAWGQGTTVTVSS VL: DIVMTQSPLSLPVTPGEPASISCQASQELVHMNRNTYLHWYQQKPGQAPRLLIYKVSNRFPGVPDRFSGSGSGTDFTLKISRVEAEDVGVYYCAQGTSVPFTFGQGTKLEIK
Result: 0
